B1: H2-Kb / Ed46 (parent complex)
chain 1: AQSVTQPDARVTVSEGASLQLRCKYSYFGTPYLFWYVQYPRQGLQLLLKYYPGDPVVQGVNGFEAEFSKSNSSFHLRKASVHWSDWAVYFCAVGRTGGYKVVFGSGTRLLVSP
chain 2: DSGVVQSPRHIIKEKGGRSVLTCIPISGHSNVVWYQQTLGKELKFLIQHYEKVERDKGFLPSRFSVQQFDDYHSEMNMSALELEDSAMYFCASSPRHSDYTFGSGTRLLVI
chain 3: not shown
chain 4: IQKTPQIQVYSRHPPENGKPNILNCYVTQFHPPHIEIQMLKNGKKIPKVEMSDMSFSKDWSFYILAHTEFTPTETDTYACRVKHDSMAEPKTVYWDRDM
chain 5: SIINFEKL

# Variants of: B1
# run_description: % of reporter cells activated (NFAT-GFP), raw; also: test concentration or dose not given here
result_type: ratio to parent

Reference set (4 entries):
Measured ratio to parent, chain 5 F5K : 0.845

Measured ratio to parent, chain 5 K7P : 0.349

Measured ratio to parent, chain 5 I2W : 0.693

Measured ratio to parent, chain 5 I2H : 0.785

I = chain 5 N4F
II = chain 5 F5L
III = chain 5 F5D
Sort low-to-high on ratio to parent, please. The reply should contain the labels ordered as requested. I, III, II

1 = chain 5 K7L
2 = chain 5 I2E
3 = chain 5 E6P
Sort low-to-high on ratio to parent, please. The reply should contain the labels ordered as requested. 1, 3, 2
(1: 0.178, 3: 0.329, 2: 1.11)

A = chain 5 I2V
B = chain 5 S1F
C = chain 5 F5E
D = chain 5 E6S
Sort low-to-high on ratio to parent, please. The reply should contain the labels ordered as requested. B, D, C, A
(B: 0.018, D: 0.249, C: 0.65, A: 1.4)

Origin of values: paper PMC11480844
